Reference for the values: PubChem BioAssay AID2060507

system: 519858-162-T-J1-PDC complex spheroid viability; assay: Anticancer human tumor 519858-162-T-J1-PDC patient-derived colon adenocarcinoma cell line growth inhibition [GQUAD]; conditions: second compound 10 µM; first compound 0.316 µM; hits give low values;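 further: spheroids exposed to compounds for 7 days; 100% = DMSO vehicle control viability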
parameter: viability, T/C (%)

- molecule: "C=CCn1c(=O)c2cnc(Nc3ccc(N4CCN(C)CC4)cc3)nc2n1-c1cccc(C(C)(C)O)n1 + CN(C)c1ccc(Nc2c3ccc(NC(=O)CCN4CCCC4)cc3nc3cc(NC(=O)CCN4CCCC4)ccc23)cc1"
  parameter: "viability, T/C"
  assay_value: 57.7
- molecule: "CC(C)n1c(=O)n(C)c2cnc3cc(F)c(-c4ccc(OCCCN5CCCCC5)nc4)cc3c21 + Cc1[nH]c2ccc(F)cc2c1-c1nc2c3cccnc3c3ncccc3c2[nH]1"
  parameter: "viability, T/C"
  assay_value: 56.8
- molecule: "CCc1c2c(nc3ccc(O)cc13)-c1cc3c(c(=O)n1C2)COC(=O)[C@]3(O)CC + Cc1cnc(CNC(=O)c2c(=O)c3ccc(N4CCCN(C)CC4)nc3n3c2sc2ccccc23)cn1"
  parameter: "viability, T/C"
  assay_value: 52.1
- molecule: "Nc1ccn(C2OC(CO)C(O)C2(F)F)c(=O)n1 (stereo not given) + Cc1[nH]c2ccc(F)cc2c1-c1nc2c3cccnc3c3ncccc3c2[nH]1"
  parameter: "viability, T/C"
  assay_value: 73
- molecule: "C#Cc1c(F)ccc2cc(O)cc(-c3ncc4c(N5CC6CCC(C5)N6)nc(OCC56CCCN5CC(F)C6)nc4c3F)c12 (stereo not given) + CN(C)c1ccc(Nc2c3ccc(NC(=O)CCN4CCCC4)cc3nc3cc(NC(=O)CCN4CCCC4)ccc23)cc1"
  parameter: "viability, T/C"
  assay_value: 77.8
- molecule: "CC1COCCN1c1cc(C2(O)CC3CCC(C2)O3)c2cnn(-c3ccn[nH]3)c2n1 (stereo not given) + CN(C)c1ccc(Nc2c3ccc(NC(=O)CCN4CCCC4)cc3nc3cc(NC(=O)CCN4CCCC4)ccc23)cc1"
  parameter: "viability, T/C"
  assay_value: 59.9
- molecule: "COc1cccc2c1C(=O)c1c(O)c3c(c(O)c1C2=O)CC(O)(C(=O)CO)CC3OC1CC(N)C(O)C(C)O1 (stereo not given) + CN(C)c1ccc(Nc2c3ccc(NC(=O)CCN4CCCC4)cc3nc3cc(NC(=O)CCN4CCCC4)ccc23)cc1"
  parameter: "viability, T/C"
  assay_value: 57.1
- molecule: "COc1ncnc(C2CC2)c1-c1ncc2cnn(Cc3ccc(-c4nc(C(F)(F)F)cn4C(C)C)cc3)c2n1 + CN(C)c1ccc(Nc2c3ccc(NC(=O)CCN4CCCC4)cc3nc3cc(NC(=O)CCN4CCCC4)ccc23)cc1"
  parameter: "viability, T/C"
  assay_value: 99.4
- molecule: "CC(=O)O[C@H]1C(=O)[C@@]2(C)[C@H]([C@H](OC(=O)c3ccccc3)[C@]3(O)C[C@H](OC(=O)[C@H](O)[C@@H](NC(=O)c4ccccc4)c4ccccc4)C(C)=C1C3(C)C)[C@]1(OC(C)=O)CO[C@@H]1C[C@@H]2O + CN(C)c1ccc(Nc2c3ccc(NC(=O)CCN4CCCC4)cc3nc3cc(NC(=O)CCN4CCCC4)ccc23)cc1"
  parameter: "viability, T/C"
  assay_value: 63.9
- molecule: "C#Cc1c(F)ccc2cc(O)cc(-c3ncc4c(N5CC6CCC(C5)N6)nc(OCC56CCCN5CC(F)C6)nc4c3F)c12 (stereo not given) + Cc1cnc(CNC(=O)c2c(=O)c3ccc(N4CCCN(C)CC4)nc3n3c2sc2ccccc23)cn1"
  parameter: "viability, T/C"
  assay_value: 48.4
